assay.target: GSPT1 (Homo sapiens, UniProt P15170+Q96SW2)
Construct: CAL-51 cells were purchased from DSMZ (cat. Number ACC302); host or cells: CAL-51
Sequence (P15170 whole entry): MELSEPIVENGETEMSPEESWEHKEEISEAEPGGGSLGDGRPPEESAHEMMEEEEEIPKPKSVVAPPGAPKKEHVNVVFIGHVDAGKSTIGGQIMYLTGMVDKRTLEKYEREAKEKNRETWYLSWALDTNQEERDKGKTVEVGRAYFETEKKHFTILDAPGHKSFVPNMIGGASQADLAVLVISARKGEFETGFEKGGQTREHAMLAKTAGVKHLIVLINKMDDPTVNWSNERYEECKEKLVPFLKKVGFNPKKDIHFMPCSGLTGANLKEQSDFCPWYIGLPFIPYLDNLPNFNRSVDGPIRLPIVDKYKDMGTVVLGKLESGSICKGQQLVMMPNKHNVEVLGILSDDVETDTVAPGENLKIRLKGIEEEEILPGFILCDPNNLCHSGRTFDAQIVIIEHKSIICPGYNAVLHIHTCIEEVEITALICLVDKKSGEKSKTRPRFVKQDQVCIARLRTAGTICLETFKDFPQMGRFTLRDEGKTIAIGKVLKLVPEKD
Sequence (Q96SW2 whole entry): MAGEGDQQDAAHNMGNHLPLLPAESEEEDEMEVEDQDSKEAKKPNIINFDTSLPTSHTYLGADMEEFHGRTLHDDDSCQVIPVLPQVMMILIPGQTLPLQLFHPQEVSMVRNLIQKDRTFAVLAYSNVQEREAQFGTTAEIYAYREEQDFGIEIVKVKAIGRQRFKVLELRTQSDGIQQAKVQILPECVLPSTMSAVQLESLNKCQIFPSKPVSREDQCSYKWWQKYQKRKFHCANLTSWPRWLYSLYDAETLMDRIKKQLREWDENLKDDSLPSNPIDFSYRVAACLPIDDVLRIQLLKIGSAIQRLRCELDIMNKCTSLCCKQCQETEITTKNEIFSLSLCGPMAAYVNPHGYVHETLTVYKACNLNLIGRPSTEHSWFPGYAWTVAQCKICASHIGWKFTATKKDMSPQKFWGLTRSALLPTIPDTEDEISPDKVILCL
Sequence (Q16531 2-1140 partner limits assumed): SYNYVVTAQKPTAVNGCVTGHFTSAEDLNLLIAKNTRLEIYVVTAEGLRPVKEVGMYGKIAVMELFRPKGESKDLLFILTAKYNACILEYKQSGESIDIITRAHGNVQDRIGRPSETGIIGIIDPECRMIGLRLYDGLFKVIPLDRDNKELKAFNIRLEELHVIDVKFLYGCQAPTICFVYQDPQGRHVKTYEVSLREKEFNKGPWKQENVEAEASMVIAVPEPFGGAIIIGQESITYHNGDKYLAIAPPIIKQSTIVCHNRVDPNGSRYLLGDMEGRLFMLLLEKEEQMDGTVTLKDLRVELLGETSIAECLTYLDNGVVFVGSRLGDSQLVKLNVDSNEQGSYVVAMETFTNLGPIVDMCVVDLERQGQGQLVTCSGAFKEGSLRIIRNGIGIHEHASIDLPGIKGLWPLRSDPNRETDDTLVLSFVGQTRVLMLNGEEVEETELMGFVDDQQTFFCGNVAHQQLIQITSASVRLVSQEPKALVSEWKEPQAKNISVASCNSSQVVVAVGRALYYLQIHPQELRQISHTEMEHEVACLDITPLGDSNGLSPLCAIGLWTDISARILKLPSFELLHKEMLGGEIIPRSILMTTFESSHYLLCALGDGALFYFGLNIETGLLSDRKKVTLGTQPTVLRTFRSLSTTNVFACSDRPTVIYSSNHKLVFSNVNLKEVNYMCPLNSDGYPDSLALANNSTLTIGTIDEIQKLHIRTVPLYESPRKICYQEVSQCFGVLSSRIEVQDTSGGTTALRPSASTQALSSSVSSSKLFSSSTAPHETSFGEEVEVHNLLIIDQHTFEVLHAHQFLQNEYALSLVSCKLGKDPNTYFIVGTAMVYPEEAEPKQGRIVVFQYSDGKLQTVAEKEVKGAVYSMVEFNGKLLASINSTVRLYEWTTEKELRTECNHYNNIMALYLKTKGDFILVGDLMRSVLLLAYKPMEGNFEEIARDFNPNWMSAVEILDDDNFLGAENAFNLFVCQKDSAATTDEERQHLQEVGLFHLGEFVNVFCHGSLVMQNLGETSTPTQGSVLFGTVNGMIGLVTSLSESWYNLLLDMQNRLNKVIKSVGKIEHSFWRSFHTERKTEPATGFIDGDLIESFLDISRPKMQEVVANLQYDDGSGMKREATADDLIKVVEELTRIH
experiment.description: Immunofluorescence assay for activity to degrade GSPT1 in CAL-51 cells
Assay type: cell-based
condition.parameters: 6 h treatment, read-out: IF Class (GSPT1 degradation, DC50)

| compound | assay.target | DC50 |
| --- | --- | --- |
| CC(C)CNC(=O)OC1CN(c2cc(F)c(C3CCC(=O)NC3=O)c(F)c2)C1 (stereo not shown) | GSPT1 (Homo sapiens, UniProt P15170+Q96SW2) | > 0.3 µM |
| Cc1ccc(NC(=O)OC2CN(c3cc(F)c(C4CCC(=O)NC4=O)c(F)c3)C2)cc1Cl (stereo not shown) | GSPT1 (Homo sapiens, UniProt P15170+Q96SW2) | ≤ 0.03 µM |
| O=C1CCC(c2c(F)cc(N3CC(NC(=O)Nc4ccc(F)c(OC(F)F)c4)C3)cc2F)C(=O)N1 (stereo not shown) | GSPT1 (Homo sapiens, UniProt P15170+Q96SW2) | ≤ 0.03 µM |
| Cc1ccc(NC(=O)OC2CN(c3cc(F)c(C4CCC(=O)NC4=O)c(F)c3)C2)cc1OC(F)F (stereo not shown) | GSPT1 (Homo sapiens, UniProt P15170+Q96SW2) | 0.03 to 0.3 µM |
| CC1(C)CCC(NC(=O)OC2CN(c3cc(F)c(C4CCC(=O)NC4=O)c(F)c3)C2)CC1 (stereo not shown) | GSPT1 (Homo sapiens, UniProt P15170+Q96SW2) | ≤ 0.03 µM |
| Cc1c(Cl)cc(NC(=O)NC2CN(c3cc(F)c(C4CCC(=O)NC4=O)c(F)c3)C2)cc1OCCN1CCOCC1 (stereo not shown) | GSPT1 (Homo sapiens, UniProt P15170+Q96SW2) | ≤ 0.03 µM |
| O=C1CCC(c2c(F)cc(N3CC(NC(=O)Nc4cc(OC(F)(F)F)ccn4)C3)cc2F)C(=O)N1 (stereo not shown) | GSPT1 (Homo sapiens, UniProt P15170+Q96SW2) | 0.03 to 0.3 µM |
| O=C1CCC(c2c(F)cc(N3CC(OC(=O)NCC4CCCC4)C3)cc2F)C(=O)N1 (stereo not shown) | GSPT1 (Homo sapiens, UniProt P15170+Q96SW2) | ≤ 0.03 µM |
| CC1(c2ccc(NC(=O)OC3CN(c4cc(F)c(C5CCC(=O)NC5=O)c(F)c4)C3)cc2)CC1 (stereo not shown) | GSPT1 (Homo sapiens, UniProt P15170+Q96SW2) | 0.03 to 0.3 µM |
| O=C1CCC(c2c(F)cc(N3CC(OC(=O)NC4Cc5ccccc5C4)C3)cc2F)C(=O)N1 (stereo not shown) | GSPT1 (Homo sapiens, UniProt P15170+Q96SW2) | ≤ 0.03 µM |
| O=C1CCC(c2c(F)cc(N3CC(OC(=O)Nc4cccc(OC(F)(F)F)c4)C3)cc2F)C(=O)N1 (stereo not shown) | GSPT1 (Homo sapiens, UniProt P15170+Q96SW2) | ≤ 0.03 µM |
| Cc1c(Cl)cc(NC(=O)NC2CN(c3cc(F)c(C4CCC(=O)NC4=O)c(F)c3)C2)cc1CN1CC2CC1CO2 (stereo not shown) | GSPT1 (Homo sapiens, UniProt P15170+Q96SW2) | ≤ 0.03 µM |
| O=C1CCC(c2c(F)cc(N3CC(OC(=O)NC4CCCC4)C3)cc2F)C(=O)N1 (stereo not shown) | GSPT1 (Homo sapiens, UniProt P15170+Q96SW2) | > 0.3 µM |
| O=C1CCC(c2c(F)cc(N3CC(NC(=O)Nc4cccc(OC5CC5)c4)C3)cc2F)C(=O)N1 (stereo not shown) | GSPT1 (Homo sapiens, UniProt P15170+Q96SW2) | 0.03 to 0.3 µM |
| O=C1CCC(c2c(F)cc(N3CC(OC(=O)NC4CCCCC4)C3)cc2F)C(=O)N1 (stereo not shown) | GSPT1 (Homo sapiens, UniProt P15170+Q96SW2) | 0.03 to 0.3 µM |
| O=C1CCC(c2c(F)cc(N3CC(OC(=O)Nc4cccc(OC5CC5)c4)C3)cc2F)C(=O)N1 (stereo not shown) | GSPT1 (Homo sapiens, UniProt P15170+Q96SW2) | ≤ 0.03 µM |
| Cc1ccc(NC(=O)OC2CN(c3ccc(C4CCC(=O)NC4=O)c(Cl)c3F)C2)cc1Cl (stereo not shown) | GSPT1 (Homo sapiens, UniProt P15170+Q96SW2) | 0.03 to 0.3 µM |
| O=C1CCC(c2c(F)cc(N3CC(NC(=O)Nc4ccc(-c5ccccn5)cc4)C3)cc2F)C(=O)N1 (stereo not shown) | GSPT1 (Homo sapiens, UniProt P15170+Q96SW2) | ≤ 0.03 µM |
| O=C1CCC(c2c(F)cc(N3CC(OC(=O)Nc4cc(F)cc(Cl)c4)C3)cc2F)C(=O)N1 (stereo not shown) | GSPT1 (Homo sapiens, UniProt P15170+Q96SW2) | 0.03 to 0.3 µM |
| CN1CCC(CNC(=O)OC2CN(c3cc(F)c(C4CCC(=O)NC4=O)c(F)c3)C2)CC1 (stereo not shown) | GSPT1 (Homo sapiens, UniProt P15170+Q96SW2) | > 0.3 µM |
| C[C@H](NC(=O)OC1CN(c2cc(F)c(C3CCC(=O)NC3=O)c(F)c2)C1)C1CCCCC1 (stereo partly shown) | GSPT1 (Homo sapiens, UniProt P15170+Q96SW2) | ≤ 0.03 µM |
| O=C1CCC(c2c(F)cc(N3CC(OC(=O)NCc4ccccc4)C3)cc2F)C(=O)N1 (stereo not shown) | GSPT1 (Homo sapiens, UniProt P15170+Q96SW2) | 0.03 to 0.3 µM |
